conditions: in ethanol, 283.15 K
RESULT TYPE: solubility (mole fraction)
Form: value (number only, do not type unit).

Consider NC(=O)c1ccccc1 . Its measured solubility (mole fraction) is 0.041

----------
conditions: in ethanol, 313.15 K
RESULT TYPE: solubility (mole fraction)
Number, no unit, nothing else.

get_value(item= NC(=O)c1ccccc1 , readout=solubility (mole fraction)) returns 0.102

----------
details: in ethanol, 298.15 K
RESULT TYPE: solubility (mole fraction)
Give only the figure.

The reported solubility (mole fraction) of the compound NC(=O)c1ccccc1 was 0.0652

----------
settings: in ethyl acetate, 293.15 K
RESULT TYPE: solubility (mole fraction)
Returns: the value as a bare number; no unit string appended.

The recorded solubility (mole fraction) for NC(=O)c1ccccc1 is 0.0281

Values from BigSolDB 2.1
